# ASSAY REMARKS: CHI Log D procedure
# Assay type: physicochemical
# MEASUREMENT SETUP: pH 7.4, CHI Log D
Reported logD values for the following molecules.
Reply: number alone, nothing else.

molecule="CC(=O)N1CCC[C@]12CC=CCCCC1(CCCC=CCCCOC(=O)N3CC[C@@](C(=O)N[C@@H](Cc4ccsc4)C(=O)N[C@@H](Cc4csc5ccccc45)C(=O)N[C@@H](CCC(N)=O)C(=O)N[C@@H](C)C(=O)N[C@@H](C)C(=O)N[C@@H](C)C(N)=O)(C3)NC(=O)[C@H](CC(N)=O)NC(=O)[C@H](Cc3ccccc3)NC(=O)[C@H](C)NC(=O)[C@H](C)NC(=O)[C@H](CC(=O)O)NC(=O)[C@H](CC(=O)O)NC1=O)NC(=O)[C@H](CC(C)(C)C)NC(=O)[C@H](CC(=O)O)NC2=O (some centres unmarked)" readout_value=1.99

# evaluate next
Task: Name the recorded logD for CC(=O)N1CCC[C@]12CC=CCCCC1(CCCC=CCCCCCC[C@@](C)(C(=O)N[C@@H](Cc3ccsc3)C(=O)N[C@@H](Cc3csc4ccccc34)C(=O)N[C@@H](CCC(N)=O)C(=O)N[C@H](C)C(=O)N[C@@H](C)C(=O)N[C@@H](C)C(N)=O)NC(=O)[C@H](CC(N)=O)NC(=O)[C@H](Cc3ccccc3)NC(=O)[C@H](C)NC(=O)[C@H](C)NC(=O)[C@H](CC(=O)O)NC(=O)[C@H](CC(=O)O)NC1=O)NC(=O)[C@H](CC(C)(C)C)NC(=O)[C@H](CC(=O)O)NC2=O (some centres unmarked) .
Output: 2.21
